system: Tumor Cell line; experiment: Evaluation for cytotoxicity to human tumor cell lines.; type: functional, cell-based
pIC50: −log10 of the molar value.
If the reported pIC50 equals or exceeds 5, assign label 1. If not, assign label 0.

>>> label("CN(C)Cc1cc(C(=O)/C=C/c2cccc(Cl)c2)cc(CN(C)C)c1O")
"label 1"
>>> label("CN(C)Cc1cc(C(=O)/C=C/c2ccc(Cl)cc2Cl)cc(CN(C)C)c1O")
"label 1"
>>> label("CN(C)Cc1cc(C(=O)/C=C/c2ccc(/C=C/C(=O)c3cc(CN(C)C)c(O)c(CN(C)C)c3)cc2)cc(CN(C)C)c1O")
"label 0"
>>> label("COc1ccc(/C=C/C(=O)c2cc(CN(C)C)c(O)c(CN(C)C)c2)cc1")
"label 0"
>>> label("N[C@@H](Cc1ccc(N(CCCl)CCCl)cc1)C(=O)O")
"label 0"

Q. Check the entry O=C(/C=C/c1ccccc1)c1cc(CN2CCOCC2)c(O)c(CN2CCOCC2)c1 : does pIC50 equal or exceed 5?
A. label 0
